- assayedTarget: Virion infectivity factor (Human immunodeficiency virus type 1 group M subtype B (isolate BH10)) + Virion infectivity factor (Human immunodeficiency virus type 1 group M subtype B (isolate BRU/LAI)) + Virion infectivity factor (Human immunodeficiency virus type 1 group M subtype B (isolate PCV12)) + Virion infectivity factor (Human immunodeficiency virus type 1 group M subtype B (isolate HXB2)) + DNA dC->dU-editing enzyme APOBEC-3G (Homo sapiens) (UniProt P69720+P69721+P69722+P69723+Q9HC16)
- testName: HIV-1 Vif–A3G interaction blockers – biochemical, TR-FRET, GST-Vif 1-94, biotin-A3G peptide, dose response retest, primary screen (AID 1117319);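 further: Vif residues 1-94 fused to GST binding biotinylated APOBEC3G peptide 110-148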
- conditionParameters: TR-FRET GST-Vif / biotin-A3G peptide binding
Results filed as inconclusive are left out.
experimentalReadout: IC50

# annotated cases, reported IC50 shown
| compound | experimentalReadout | assayValue |
| --- | --- | --- |
| CC1(CCl)N([O-])C2=C(CCCC2)[N+]1=O (stereo unspecified) | IC50 | 8.49 µM |
| CN(C)C(CNC(=O)c1cccnc1Sc1ccccc1)c1ccco1 (stereo unspecified) | IC50 | 64 µM |
| COc1cc(NC(=O)CS(=O)(=O)c2ccc(C)cc2)cc(OC)c1OC | IC50 | 23.3 µM |
| Cc1ccc(/C=C2\SC(=S)N(c3cccnc3)C2=O)o1 | IC50 | 6.87 µM |
| Oc1ccc(N=Cc2ccc(O)c(O)c2)cc1 | IC50 | 0.99 µM |

Provide each entry's IC50 from the list below.
1. COc1ccccc1-n1c(-c2cc(-c3ccco3)[nH]n2)n[nH]c1=S
2. O=C(O)c1ccc2c(c1)C1C(Cl)C(Sc3ccccc3[N+](=O)[O-])CC1C(c1cccc([N+](=O)[O-])c1)N2 (stereo unspecified)
3. CC1Cc2ccccc2N1Cc1nc2cc(C(F)(F)F)ccc2c(=O)[nH]1 (stereo unspecified)
4. O=C(NCCCO)Nc1ccc2nc(-c3ccco3)c(-c3ccco3)nc2c1
5. CC1CCC/C(=C\Nc2ccc(C(=O)O)c(O)c2)C1=O (stereo unspecified)

1. 3.11 µM
2. 11.8 µM
3. 74.5 µM
4. 0.26 µM
5. 17.1 µM

Provide each entry's IC50 from the list below.
1. Cc1ccccc1NC(=O)c1c(C)[nH]c(=S)c(C#N)c1-c1ccco1
2. CCC(Cc1ccccc1)NC(=O)C1CCN(S(=O)(=O)c2c(C)noc2C)CC1 (stereo unspecified)
3. C=C(C)C(=O)Nc1cccc(C2=NOC3(C2)C[C@@H](C(N)=O)N(C(=O)CCCCC)C3)c1 (stereo partly specified)

1. 18.7 µM
2. 91 µM
3. 0.22 µM

Provide each entry's IC50 from the list below.
1. CCCCn1cnc2cc(NCc3ccncc3)ccc21
2. CC1(C)Cc2nc3sc4c(SCC(=O)NCc5ccco5)ncnc4c3cc2CO1
3. CCN=c1scc(C)n1/N=C/c1ccc(O)c(O)c1O
4. COC(=O)c1cnn2c(C(F)(F)F)cc(-c3ccco3)nc12
5. CC(=O)C1=C(C)NC(C)=C(C(C)=O)C1c1cccs1
6. O=C(NC1=CC(=O)c2ccccc2C1=O)c1ccccc1

1: 35.3 µM; 2: 79.5 µM; 3: 2.47 µM; 4: 7.16 µM; 5: 23.5 µM; 6: 20.7 µM

Provide each entry's IC50 from the list below.
1. O=CN/C=C/c1cc(O)ccc1O
2. CCOC(=O)C1=C(C)N=c2s/c(=C/c3ccco3)c(=O)n2C1c1cccc(OC)c1 (stereo unspecified)
3. COc1cc(C2C(C#N)=C(N)N(c3cccnc3)C3=C2C(=O)CCC3)ccc1O (stereo unspecified)

["1.72 µM", "33 µM", "13.6 µM"]

###

- assayedTarget: Virion infectivity factor (Human immunodeficiency virus type 1 group M subtype B (isolate BH10)) + Virion infectivity factor (Human immunodeficiency virus type 1 group M subtype B (isolate BRU/LAI)) + Virion infectivity factor (Human immunodeficiency virus type 1 group M subtype B (isolate PCV12)) + Virion infectivity factor (Human immunodeficiency virus type 1 group M subtype B (isolate HXB2)) + DNA dC->dU-editing enzyme APOBEC-3G (Homo sapiens) (UniProt P69720+P69721+P69722+P69723+Q9HC16)
- testName: HIV-1 Vif–A3G interaction blockers – biochemical, TR-FRET, GST-Vif 1-94, biotin-A3G peptide, dose response retest, primary screen (AID 1117319);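 further: Vif residues 1-94 fused to GST binding biotinylated APOBEC3G peptide 110-148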
- conditionParameters: TR-FRET GST-Vif / biotin-A3G peptide binding
Records with an inconclusive call do not appear.
Please go through the items and note down their IC50.

| compound | IC50 |
| --- | --- |
| CNc1ccc(Br)cc(C(=O)/C=C/c2cccc(OC)c2OC)c1=O | 4.1 µM |
| CC(=O)OC1COC(n2ccc3ccccc32)C(OC(C)=O)C1OC(C)=O (stereo not given) | 22.6 µM |
| CC[C@H](C)/C=C(C)/C=C/C1=CC2=CC(=O)[C@]3(C)OC(=O)[C@@H](C(C)=O)[C@@H]3C2=CO1 | 13 µM |
| CCn1c(C)nc2cc(C(=O)N/N=C/c3ccc(O)c(O)c3O)ccc21 | 0.52 µM |
| O=S(=O)(O)c1cc(Cl)cc(N=Nc2ccc(O)cc2O)c1O | 49.4 µM |

Provide each entry's IC50 from the list below.
1. CCc1nc2oc3cc(OC)ccc3c(=O)c2c(=O)n1Cc1ccco1
2. CCN(C(=O)CN1CCN(c2ccc(O)cc2)CC1)c1c(N)n(Cc2ccccc2)c(=O)[nH]c1=O
3. CNc1ccc(Br)cc(C(=O)/C=C/c2ccc(OC)cc2OC)c1=O
4. N#C/C(=C\c1ccc([N+](=O)[O-])o1)C(=O)Nc1ccc(F)cc1

1. 39.4 µM
2. 16.4 µM
3. 2.79 µM
4. 7.59 µM

Consider CN(C)c1ncc(C2=C(Cl)C(=O)C(N3CCCC3)=C(Cl)C2=O)s1 . Its measured IC50 is 0.38 µM

###

- assayedTarget: Virion infectivity factor (Human immunodeficiency virus type 1 group M subtype B (isolate BH10)) + Virion infectivity factor (Human immunodeficiency virus type 1 group M subtype B (isolate BRU/LAI)) + Virion infectivity factor (Human immunodeficiency virus type 1 group M subtype B (isolate PCV12)) + Virion infectivity factor (Human immunodeficiency virus type 1 group M subtype B (isolate HXB2)) + DNA dC->dU-editing enzyme APOBEC-3G (Homo sapiens) (UniProt P69720+P69721+P69722+P69723+Q9HC16)
- testName: HIV-1 Vif–A3G interaction blockers – biochemical, TR-FRET, GST-Vif 1-94, biotin-A3G peptide, dose response retest, primary screen (AID 1117319);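 further: Vif residues 1-94 fused to GST binding biotinylated APOBEC3G peptide 110-148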
- conditionParameters: TR-FRET GST-Vif / biotin-A3G peptide binding
Results filed as inconclusive are left out.
Please go through the items and note down their pIC50.
One number for each entry, as −log10 of the molar value.

# annotated cases, reported pIC50 shown
| compound | experimentalReadout | assayValue |
| --- | --- | --- |
| Cc1cc(-c2csc(NC(=O)c3ccc(C#N)cc3)n2)c(C)n1Cc1ccco1 | pIC50 | 5.47 |
| CN(C)c1ccc(N=C/C=C2/N(C)c3ccccc3C2(C)C)cc1 | pIC50 | 5.66 |
| COc1ccc2[nH]c3c4c(ccc3c2c1)C(=O)C=CC4=O | pIC50 | 5.85 |
| C=CCn1c(N2CCCCCC2)nc2c1c(=O)[nH]c(=O)n2C | pIC50 | 4.52 |

Provide each entry's pIC50 from the list below.
1. O=C(CSc1ccc(Cl)cc1)c1ccco1
2. Nc1ccc(Oc2ncccn2)cc1

[4.96, 4.61]

Provide each entry's pIC50 from the list below.
1. O=C1C=C(Nc2cccc3cccnc23)c2ccccc2C1=O
2. C=CCN=c1scc(-c2ccco2)n1/N=C/c1ccc(O)c(O)c1O
3. CC(=O)Nc1ccc(S(=O)(=O)N2CCN(Cc3ccccn3)CC2)cc1
4. CC1COCC(C)N1C1=C(Cl)C(=O)c2ccccc2C1=O (configuration not stated)
5. O=c1[nH][nH]c2c(N=Cc3ccccc3O)ccc(F)c12
6. Cc1nc2cc(N=NC3=C(O)CCCC3=O)ccc2s1

4.64
5.86
4.11
4.96
6.06
5.89

###

- assayedTarget: Virion infectivity factor (Human immunodeficiency virus type 1 group M subtype B (isolate BH10)) + Virion infectivity factor (Human immunodeficiency virus type 1 group M subtype B (isolate BRU/LAI)) + Virion infectivity factor (Human immunodeficiency virus type 1 group M subtype B (isolate PCV12)) + Virion infectivity factor (Human immunodeficiency virus type 1 group M subtype B (isolate HXB2)) + DNA dC->dU-editing enzyme APOBEC-3G (Homo sapiens) (UniProt P69720+P69721+P69722+P69723+Q9HC16)
- testName: HIV-1 Vif–A3G interaction blockers – biochemical, TR-FRET, GST-Vif 1-94, biotin-A3G peptide, dose response retest, primary screen (AID 1117319);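 further: Vif residues 1-94 fused to GST binding biotinylated APOBEC3G peptide 110-148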
- conditionParameters: TR-FRET GST-Vif / biotin-A3G peptide binding
Results filed as inconclusive are left out.
experimentalReadout: IC50

| compound | IC50 |
| --- | --- |
| C=C(C)C(=O)Nc1cccc(C2=NOC3(C2)C[C@@H](C(N)=O)N(C(=O)/C=C/CC)C3)c1 (some centres not stated) | 3.32 µM |
| O=C(CN1CCN(S(=O)(=O)c2ccc(Cl)s2)CC1)NCc1ccc(Cl)cc1 | 7.67 µM |
| O=C(CCN1CCN(c2ccccc2)CC1)N/N=C/c1ccc(O)c(O)c1O | 1.02 µM |
| O=C(CSc1nnc(-c2ccco2)c(-c2ccco2)n1)Nc1ccccc1 | 3.12 µM |

Provide each entry's IC50 from the list below.
1. COc1cccc(C2NC(=O)NC(O)(C(F)(F)F)C2C(=O)c2cccnc2)c1OC (configuration not stated)
2. COc1ccc(N2CCN(C(=O)c3ccc(C)c(Cl)c3)CC2)cc1
3. NN=C1C(Cl)=C(Cl)C(Cl)=C1Cl
4. COc1ccc(-c2nc3ccccc3n2OC(=O)N(C)C)cc1
5. O/C=c1\ccc2cccc3nc(C(F)(F)F)nc1c23

47.1 µM
42.2 µM
10.6 µM
42.9 µM
2.79 µM
